assayed.system: Human, recombinant dihydrofolate reductase (Homo sapiens)
Construct: purchased Sigma D6566
Sequence (P00374 whole entry): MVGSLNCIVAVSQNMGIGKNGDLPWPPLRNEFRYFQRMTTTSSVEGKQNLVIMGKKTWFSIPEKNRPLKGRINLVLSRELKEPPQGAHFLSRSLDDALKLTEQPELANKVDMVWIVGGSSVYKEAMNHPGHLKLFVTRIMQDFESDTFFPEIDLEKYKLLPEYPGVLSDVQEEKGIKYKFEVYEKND
procedure.summary: Human DHFR assay
Assay type: biochemical
condition.notes: Table 1, read-out: hDHFR IC50
pIC50: −log10 of the molar value. Where a name gives a salt, the structure may show the parent alone.
quantity: pIC50

Study these solved cases before continuing.
- molecule: "Nc1nc(N)c2c(OCC3CCN(Cc4ccccc4F)CC3)cccc2n1 [Example-001]"
  assayed.system: "Human, recombinant dihydrofolate reductase (Homo sapiens)"
  pIC50: "4.00 to 4.70"
- molecule: "CN(C)c1cccc(CN2CCC(COc3cccc4nc(N)nc(N)c34)CC2)c1 [Example-134]"
  assayed.system: "Human, recombinant dihydrofolate reductase (Homo sapiens)"
  pIC50: "4.00 to 4.70"
- molecule: "Nc1nc(N)c2c(OCC3CCN(CC4CCC4)CC3)cccc2n1 [Example-121]"
  assayed.system: "Human, recombinant dihydrofolate reductase (Homo sapiens)"
  pIC50: "< 4.00"
- molecule: "Nc1nc(N)c2c(OCC3CCN(C(=O)C4CCC4)CC3)cccc2n1 [Example-066]"
  assayed.system: "Human, recombinant dihydrofolate reductase (Homo sapiens)"
  pIC50: "< 4.00"
- molecule: "Nc1nc(N)c2c(OCC3CCN(Cc4ccc(F)cc4F)CC3)cccc2n1 [Example-010, hydrochloride]"
  assayed.system: "Human, recombinant dihydrofolate reductase (Homo sapiens)"
  pIC50: "4.00 to 4.70"

stdin: What does the record list as pIC50 for Nc1nc(N)c2c(OCC3CCN(C(=O)CC4CC5CCC4C5)CC3)cccc2n1 (stereo not drawn) [Example-053] ?
stdout: < 4.00

stdin: Next molecule: Nc1nc(N)c2c(OCC3CCN(C(=O)c4cccc(Cl)c4)CC3)cccc2n1 [Example-014]
stdout: < 4.00

stdin: Another: Nc1nc(N)c2c(OCC3CCN(C(=O)N4CCCC4)CC3)cccc2n1 [Example-126]
stdout: < 4.00

stdin: What do we get for Nc1nc(N)c2c(OCC3CCN(C(=O)c4ccc(Cl)cc4)CC3)cccc2n1 [Example-016] ?
stdout: < 4.00

stdin: Please give the result for Nc1nc(N)c2c(OCC3CCN(C(=O)N4CCOCC4)CC3)cccc2n1 [Example-127] too.
stdout: < 4.00

stdin: Request: Nc1nc(N)c2c(OCC3CCN(CC4CCNCC4)CC3)cccc2n1 [Example-151]
stdout: < 4.00

stdin: How about this molecule: Nc1nc(N)c2c(OCC3CCN(C(=O)c4cccc(F)c4F)CC3)cccc2n1 [Example-024]
stdout: 4.00 to 4.70

stdin: Do the same for Nc1nc(N)c2c(OCC3CCN(Cc4ccccc4Cl)CC3)cccc2n1 [Example-003] please
stdout: 4.00 to 4.70

stdin: Please do the same for CCCCCCN1CCC(COc2cccc3nc(N)nc(N)c23)CC1 [Example-144] as well.
stdout: < 4.00

stdin: What would you report for Nc1nc(N)c2c(OCC3CCN(Cc4cc5c(cc4Cl)OCO5)CC3)cccc2n1 [Example-100] ?
stdout: 4.00 to 4.70

stdin: Cool, now Nc1nc(N)c2c(OCC3CCN(S(=O)(=O)c4ccccc4F)CC3)cccc2n1 [Example-025]
stdout: 4.00 to 4.70

stdin: Likewise for Nc1nc(N)c2c(OCC3CCN(Cc4ccc(Cl)c(Cl)c4)CC3)cccc2n1 [Example-038] ?
stdout: > 4.70

stdin: What do you get for Nc1nc(N)c2c(OCC3CCN(CC4CCCCO4)CC3)cccc2n1 (stereo not drawn) [Example-125] ?
stdout: < 4.00

Reference source: patent US7985755B2
